Where do the numbers come from? From patent US10058534B2.

- assayTarget: ERα (Homo sapiens (Human))
- Sequence (P03372 whole entry): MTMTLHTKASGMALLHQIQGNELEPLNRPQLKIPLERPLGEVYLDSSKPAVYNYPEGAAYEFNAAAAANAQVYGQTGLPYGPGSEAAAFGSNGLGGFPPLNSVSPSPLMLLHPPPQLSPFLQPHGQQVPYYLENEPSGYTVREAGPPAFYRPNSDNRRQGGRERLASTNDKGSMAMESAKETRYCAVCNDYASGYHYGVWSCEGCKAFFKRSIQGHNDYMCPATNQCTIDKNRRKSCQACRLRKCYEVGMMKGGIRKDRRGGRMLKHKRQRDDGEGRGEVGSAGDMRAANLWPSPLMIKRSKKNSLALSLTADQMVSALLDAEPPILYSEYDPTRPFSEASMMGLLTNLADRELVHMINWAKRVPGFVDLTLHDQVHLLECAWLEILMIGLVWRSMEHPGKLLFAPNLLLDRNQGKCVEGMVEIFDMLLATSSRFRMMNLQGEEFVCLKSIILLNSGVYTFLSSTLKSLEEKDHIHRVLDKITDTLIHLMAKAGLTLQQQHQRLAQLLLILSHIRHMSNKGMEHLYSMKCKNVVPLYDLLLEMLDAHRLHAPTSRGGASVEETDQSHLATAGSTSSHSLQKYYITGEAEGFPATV
- assayNotes: ERα degradation (MCF7 cells), in-cell Western
- Format: cell-based
- assayConditions: remaining ERα protein at 10 μM ligand, MCF7 cells, relative to DMSO control
So I've got a bunch of compounds here, and I need their % ERα remaining values.
Answers are plain numbers, in %.

Worked examples, 3 compounds total:
[[record]]
compound = "CCOC(=O)/C=C/c1ccc(Oc2c(-c3ccc(O)cc3)sc3cc(O)ccc23)c(C)c1 [Example 35]"
valuetype = "% ERα remaining"
assayresult = 33

[[record]]
compound = "CC(=O)/C=C/c1ccc(Oc2c(-c3ccccc3C(C)C)sc3cc(O)ccc23)cc1 [Example 78]"
valuetype = "% ERα remaining"
assayresult = 72

[[record]]
compound = "CNC(=O)/C=C/c1ccc(Oc2c(-c3ccc(C(F)(F)F)cc3)sc3cc(O)ccc23)cc1 [Example 63]"
valuetype = "% ERα remaining"
assayresult = 26


For each listed entry, give its % ERα remaining.
1. CC(C)(C)c1ccccc1-c1sc2cc(O)ccc2c1Oc1ccc(/C=C/C(=O)O)cc1 [Example 20]
2. O=C(O)/C=C/c1ccc(Oc2c(-c3ccccc3C3CCC3)sc3cc(O)ccc23)cc1 [Example 89]

[22, 18]

For each listed entry, give its % ERα remaining.
1. O=C(O)/C=C/c1ccc(Oc2c(-c3ccc(Cl)cc3)sc3cc(O)ccc23)cc1 [Example 6]
2. CCOC(=O)/C=C/c1ccc(Oc2c(-c3ccc(O)cc3)sc3cc(O)ccc23)cc1C [Example 34]
3. CC(C)c1ccccc1-c1sc2cc(O)ccc2c1Oc1ccc(/C=C/C(=O)OCCN2CCOCC2)cc1 [Example 138]
4. O=C(O)/C=C/c1ccc(Oc2c(-c3ccccc3CC(F)(F)F)sc3cc(O)ccc23)cc1 [Example 109]
5. CC(=O)/C=C/c1ccc(Oc2c(-c3ccc(F)cc3C(F)(F)F)sc3cc(O)ccc23)cc1 [Example 120]
6. C#Cc1ccccc1-c1sc2cc(O)ccc2c1Oc1ccc(/C=C/C(=O)O)cc1 [Example 132]
7. CC/C(=C\c1ccc(Oc2c(-c3ccc(O)cc3)sc3cc(O)ccc23)cc1)C(=O)O [Example 114]

21
42
24
16
70
16
35

For each listed entry, give its % ERα remaining.
1. Oc1ccc(-c2sc3cc(O)ccc3c2Oc2ccc(/C=C/c3c[nH]cn3)cc2)cc1 [Example 72]
2. CC(C)c1ccccc1-c1sc2cc(O)ccc2c1Oc1ccc(/C=C/C(=O)O)cc1 [Example 4]
3. CN(c1ccc(/C=C/C(=O)O)cc1)c1c(-c2ccc(O)cc2)sc2cc(O)ccc12 [Example 30]
4. CCc1cccc(CC)c1-c1sc2cc(O)ccc2c1Oc1ccc(/C=C/C(=O)O)cc1 [Example 130]
5. Cn1nnnc1/C=C/c1ccc(Oc2c(-c3ccc(F)cc3)sc3cc(O)ccc23)cc1 [Example 52]
6. CC(C)c1ccccc1-c1sc2cc(O)ccc2c1Oc1ccc(CCC(=O)O)cc1 [Example 93]
7. O=C(O)/C=C/c1ccc(Oc2c(-c3cccc(F)c3C(F)(F)F)sc3cc(O)ccc23)cc1 [Example 90]

1. 39
2. 13
3. 30
4. 12
5. 41
6. 25
7. 15
